I'd appreciate it if you could supply EC50 values for the items below.
system.name: T1, human CD22, full length, on CHO-K1-human CD22 2C4 cells (human, UniProt P20273 20-847)
T1 construct: Full-length human CD22 (NCBI NP_001762.2) stably transfected into CHO-K1
T1 sequence: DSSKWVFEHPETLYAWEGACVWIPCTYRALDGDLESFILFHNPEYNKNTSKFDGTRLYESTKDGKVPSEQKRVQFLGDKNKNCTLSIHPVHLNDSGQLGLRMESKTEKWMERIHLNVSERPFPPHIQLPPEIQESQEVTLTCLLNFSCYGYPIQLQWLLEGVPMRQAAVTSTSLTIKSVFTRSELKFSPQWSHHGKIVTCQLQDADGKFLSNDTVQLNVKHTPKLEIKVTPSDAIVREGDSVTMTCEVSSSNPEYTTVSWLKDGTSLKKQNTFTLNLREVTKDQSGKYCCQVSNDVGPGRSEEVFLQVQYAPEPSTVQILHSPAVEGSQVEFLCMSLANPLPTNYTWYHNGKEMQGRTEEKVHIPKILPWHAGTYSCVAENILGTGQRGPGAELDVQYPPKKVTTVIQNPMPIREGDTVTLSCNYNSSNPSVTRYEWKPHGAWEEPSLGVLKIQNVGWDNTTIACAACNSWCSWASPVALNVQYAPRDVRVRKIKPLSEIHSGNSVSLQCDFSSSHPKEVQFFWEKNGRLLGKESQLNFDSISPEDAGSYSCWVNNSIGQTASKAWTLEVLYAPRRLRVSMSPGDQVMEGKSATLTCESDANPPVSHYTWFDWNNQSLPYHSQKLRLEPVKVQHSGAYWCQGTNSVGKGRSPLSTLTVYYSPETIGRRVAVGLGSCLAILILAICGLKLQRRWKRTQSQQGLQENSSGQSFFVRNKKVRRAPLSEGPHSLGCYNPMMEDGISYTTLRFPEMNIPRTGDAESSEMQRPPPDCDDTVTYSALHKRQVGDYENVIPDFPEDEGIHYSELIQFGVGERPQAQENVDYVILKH
assay.info: FACS, CHO-K1-human CD22 2C4 cells
Give bare numbers, in nM.

binder	EC50 [nM]
F2.127.11 human-murine chimeric antibody (antibody, human IgG1, lambda, V domains shown, Chimeric, human IgG1 / lambda; VL tied by name) VH: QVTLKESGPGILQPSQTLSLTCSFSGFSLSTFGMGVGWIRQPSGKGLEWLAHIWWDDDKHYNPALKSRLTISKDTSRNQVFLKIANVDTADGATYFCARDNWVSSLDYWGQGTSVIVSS VL: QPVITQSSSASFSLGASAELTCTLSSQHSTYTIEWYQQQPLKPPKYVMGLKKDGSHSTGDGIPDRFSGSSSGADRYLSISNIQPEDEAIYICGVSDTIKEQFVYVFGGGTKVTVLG	1.22

Give EC50 for all binders that follow.
1. F2.121.9 human-murine chimeric antibody (antibody, human IgG1, lambda, V domains shown, Chimeric, human IgG1 / lambda) VH: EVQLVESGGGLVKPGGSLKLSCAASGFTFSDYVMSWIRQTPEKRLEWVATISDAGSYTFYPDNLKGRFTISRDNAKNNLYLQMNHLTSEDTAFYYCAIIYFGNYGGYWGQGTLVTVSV VL: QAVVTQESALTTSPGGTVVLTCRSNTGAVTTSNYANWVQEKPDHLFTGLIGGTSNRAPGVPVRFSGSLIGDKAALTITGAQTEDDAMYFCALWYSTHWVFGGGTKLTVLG
2. F2.180.16 human-murine chimeric antibody (antibody, human IgG1, lambda, V domains shown, Chimeric, human IgG1 / lambda) VH: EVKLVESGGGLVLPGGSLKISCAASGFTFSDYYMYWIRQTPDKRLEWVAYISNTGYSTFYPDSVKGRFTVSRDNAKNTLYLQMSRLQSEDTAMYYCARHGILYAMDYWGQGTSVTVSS VL: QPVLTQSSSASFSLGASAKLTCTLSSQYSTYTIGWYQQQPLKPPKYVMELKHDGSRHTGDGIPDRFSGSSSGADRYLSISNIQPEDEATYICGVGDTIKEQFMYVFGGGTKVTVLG

**A:**
1.09
1.63
